assayDetails: Metabolic stability in rat liver microsomes assessed as parent compound turnover at 1 uM after 15 mins
Assay type: ADME, Microsome
conditionDetails: read-out: Stability
Assign classes using reported metabolised at 0.25 h, 1 µM values and the ranges range A (below 20%), range B (20% to below 70%), range C (70% or more), please.

The following molecules have reported results that may help.
>>> category("O=C(NCC1(c2ncccc2F)CCN(S(=O)(=O)c2cccs2)CC1)c1ccc(Cl)cc1Cl")
"range C"
>>> category("Cn1cc(S(=O)(=O)N2CC(CNC(=O)c3ccc(Cl)cc3Cl)(c3ncccc3F)C2)nn1")
"range A"
>>> category("Cn1cc(S(=O)(=O)N2CCC(CNC(=O)c3ccc(Cl)cc3Cl)(CC3CC3)CC2)nn1")
"range C"
>>> category("CCCS(=O)(=O)N1CCC(CNC(=O)c2ccc(Cl)cc2Cl)(c2ncccc2F)CC1")
"range C"
>>> category("Cn1cc(S(=O)(=O)N2CC(CNC(=O)c3ccc(Cl)cc3Cl)(CC3CC3)C2)nn1")
"range C"
>>> category("Cn1cc(S(=O)(=O)[C@H]2CC[C@@](CNC(=O)c3ccc(Cl)cc3Cl)(CC3CC3)CC2)nn1")
"range B"

stdin: # classify by metabolised at 0.25 h, 1 µM band: CCn1cc(S(=O)(=O)N2CC(CNC(=O)c3ccc(Cl)cc3Cl)(CC3CC3)C2)nn1
stdout: range B

* * *

assayDetails: Clearance in Sprague-Dawley rat at 0.1 mg/kg, iv and 1 mg/kg, po
Assay type: ADME, organism-based
conditionDetails: in vivo
endpointName: clearance (mL/min/kg)
Express the result in mL/min/kg but write the number alone.

stdin: Give the measured clearance of Cn1cc(S(=O)(=O)N2CCC(CNC(=O)c3ccc(Cl)cc3Cl)(CC3CC3)CC2)nn1 .
stdout: 39

* * *

Let's look at some compounds and their measured metabolised at 0.25 h, 1 µM.
assayDetails: Metabolic stability in dog liver microsomes assessed as parent compound turnover at 1 uM after 15 mins
Assay type: ADME, Canis lupus familiaris, Microsome
conditionDetails: read-out: Stability
Write it as a number; the unit % goes unstated.

>>> obsvalue("CCn1cc(S(=O)(=O)N2CC(CNC(=O)c3ccc(Cl)cc3Cl)(CC3CC3)C2)nn1")
44

stdin: Look at this compound and give its reported metabolised at 0.25 h, 1 µM. CCCS(=O)(=O)N1CCC(CNC(=O)c2ccc(Cl)cc2Cl)(c2ncccc2F)CC1
stdout: 25

stdin: Item Cn1cc(S(=O)(=O)N2CCC(CNC(=O)c3ccc(Cl)cc3Cl)(CC3CC3)CC2)nn1 has what recorded metabolised at 0.25 h, 1 µM?
stdout: 34

stdin: Dear colleague, I am looking for the recorded metabolised at 0.25 h, 1 µM of the following compound: Cn1cc(S(=O)(=O)N2CCC(CNC(=O)c3ccc(Cl)cc3Cl)(c3ncccc3F)CC2)nn1
stdout: 17

stdin: Need metabolised at 0.25 h, 1 µM of Cn1cnc(S(=O)(=O)N2CCC(CNC(=O)c3ccc(Cl)cc3Cl)(c3ncccc3F)CC2)c1 , thanks.
stdout: 21

stdin: Which value of metabolised at 0.25 h, 1 µM has been reported for O=C(NCC1(c2ncccc2F)CCN(S(=O)(=O)c2cccnc2)CC1)c1ccc(Cl)cc1Cl in the records?
stdout: 96

stdin: Recorded metabolised at 0.25 h, 1 µM of O=C(NCC1(c2ncccc2F)CCN(S(=O)(=O)c2cccs2)CC1)c1ccc(Cl)cc1Cl , please.
stdout: 72

stdin: Fill in the blank: the reported metabolised at 0.25 h, 1 µM of Cn1cc(S(=O)(=O)N2CC(CNC(=O)c3ccc(Cl)cc3Cl)(CC3CC3)C2)nn1 is ____.
stdout: 24

stdin: Field request: metabolised at 0.25 h, 1 µM | item: Cn1cc(S(=O)(=O)N2CCC(CNC(=O)c3ccc(Cl)cc3Cl)(CC3CC3)CC2)cn1
stdout: 38

stdin: Fill blank: measured metabolised at 0.25 h, 1 µM of the compound Cn1cc(S(=O)(=O)N2CC(CNC(=O)c3ccc(Cl)cc3Cl)(CC3CC3)C2)cn1 is ____.
stdout: 70

* * *

assayDetails: Volume of distribution at steady state in Sprague-Dawley rat at 0.1 mg/kg, iv and 1 mg/kg, po
Format: ADME, organism-based
conditionDetails: in vivo, read-out: Vdss
endpointName: Vd (L/kg)
The response must be a number in L/kg with no trailing unit.

>>> obsvalue("Cn1cc(S(=O)(=O)[C@H]2CC[C@@](CNC(=O)c3ccc(Cl)cc3Cl)(CC3CC3)CC2)nn1")
2.3

stdin: Dear colleague, I am looking for the recorded Vd of the following compound: Cn1cc(S(=O)(=O)[C@H]2CC[C@](CNC(=O)c3ccc(Cl)cc3Cl)(CC3CC3)CC2)nn1
stdout: 2.6

* * *

target: Sodium- and chloride-dependent glycine transporter 1 (Homo sapiens, UniProt P48067)
assayDetails: Inhibition of [3H]glycine uptake at human glycine transporter 1 expressed in human JAR cells after 3 hrs by scintillation counting
endpointName: IC50

// worked examples, IC50 included
>>> obsvalue("Cn1cc(S(=O)(=O)N2CC(CNC(=O)c3ccc(Cl)cc3Cl)(c3ncccc3F)C2)cn1")
"2.95 nM"
>>> obsvalue("Cn1cnc(S(=O)(=O)N2CCC(CNC(=O)c3ccc(Cl)cc3Cl)(c3ncccc3F)CC2)c1")
"1.74 nM"

stdin: Query: IC50; subject: Cn1cc(S(=O)(=O)N2CCC(CNC(=O)c3ccc(Cl)cc3Cl)(CC3CC3)CC2)nn1
stdout: 0.32 nM

stdin: Find the recorded IC50 belonging to Cn1cc(S(=O)(=O)[C@H]2CC[C@@](CNC(=O)c3ccc(Cl)cc3Cl)(CC3CC3)CC2)nn1 and report it.
stdout: 1.89 nM

stdin: I am curious: what IC50 value has been reported for Cn1cnnc1S(=O)(=O)N1CCC(CNC(=O)c2ccc(Cl)cc2Cl)(CC2CC2)CC1 ?
stdout: 124 nM

stdin: Dear colleague, I am looking for the recorded IC50 of the following compound: CCn1cc(S(=O)(=O)N2CCC(CNC(=O)c3ccc(Cl)cc3Cl)(CC3CC3)CC2)nn1
stdout: 28.2 nM

stdin: Need IC50 of Cn1cc(S(=O)(=O)N2CCC(CNC(=O)c3ccc(Cl)cc3Cl)(c3ncccc3F)CC2)cn1 , thanks.
stdout: 5.43 nM

stdin: Name the recorded IC50 for O=C(NCC1(c2ncccc2F)CCN(S(=O)(=O)CC2CC2)CC1)c1ccc(Cl)cc1Cl .
stdout: 2 nM

stdin: Recorded IC50 of Cn1ncnc1S(=O)(=O)N1CCC(CNC(=O)c2ccc(Cl)cc2Cl)(CC2CC2)CC1 , please.
stdout: 314 nM

stdin: # lookup: IC50 of CCCS(=O)(=O)N1CCC(CNC(=O)c2ccc(Cl)cc2Cl)(c2ncccc2F)CC1
stdout: 4.33 nM

stdin: Any idea what its IC50 is? The compound is Cn1nncc1S(=O)(=O)N1CC(CNC(=O)c2ccc(Cl)cc2Cl)(CC2CC2)C1
stdout: 185 nM

stdin: Entry under review: Cn1cc(S(=O)(=O)N2CCC(CNC(=O)c3ccc(Cl)cc3Cl)(c3ncccc3F)CC2)nn1 . Reported IC50?
stdout: 0.65 nM

stdin: GET /values?readout=IC50&item= O=C(NCC1(c2ncccc2F)CCN(S(=O)(=O)c2cccnc2)CC1)c1ccc(Cl)cc1Cl
stdout: 11.6 nM

stdin: Please give the measured IC50 for this compound: Cn1cc(S(=O)(=O)[C@H]2CC[C@](CNC(=O)c3ccc(Cl)cc3Cl)(CC3CC3)CC2)nn1
stdout: 5.44 nM

* * *

target: Sodium- and chloride-dependent glycine transporter 1 (Homo sapiens) (UniProt P48067)
Sequence (whole entry): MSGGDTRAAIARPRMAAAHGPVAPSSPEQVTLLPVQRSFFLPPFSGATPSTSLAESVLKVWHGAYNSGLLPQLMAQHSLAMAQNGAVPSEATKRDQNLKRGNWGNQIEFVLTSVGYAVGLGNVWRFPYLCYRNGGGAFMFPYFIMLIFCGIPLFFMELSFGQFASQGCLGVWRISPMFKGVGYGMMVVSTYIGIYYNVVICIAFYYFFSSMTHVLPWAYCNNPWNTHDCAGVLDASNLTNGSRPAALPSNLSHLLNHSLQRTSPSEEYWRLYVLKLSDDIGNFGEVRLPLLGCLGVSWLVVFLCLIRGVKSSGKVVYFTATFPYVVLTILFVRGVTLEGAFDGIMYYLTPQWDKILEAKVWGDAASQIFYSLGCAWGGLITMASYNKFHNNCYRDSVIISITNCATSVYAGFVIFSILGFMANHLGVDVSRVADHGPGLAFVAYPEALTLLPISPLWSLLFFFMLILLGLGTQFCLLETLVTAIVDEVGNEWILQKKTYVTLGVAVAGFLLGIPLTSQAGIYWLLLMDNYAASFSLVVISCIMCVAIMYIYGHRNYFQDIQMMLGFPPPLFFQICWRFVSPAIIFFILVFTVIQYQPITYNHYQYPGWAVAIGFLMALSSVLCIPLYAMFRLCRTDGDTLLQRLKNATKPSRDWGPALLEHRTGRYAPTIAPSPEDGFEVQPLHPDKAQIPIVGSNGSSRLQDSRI
assayDetails: Inhibition of [3H]glycine uptake at human glycine transporter 1 expressed in human JAR cells at 3 uM after 3 hrs by scintillation counting
Assay type: cell-based
We use 30% as the dividing line for inhibition: on or above the line is 1, below is -1.

Below, 4 compounds whose answers are already recorded.
>>> category("O=C(NCC1(c2ncccc2F)CCN(S(=O)(=O)c2ccccc2)CC1)c1ccc(Cl)cc1Cl")
1
>>> category("Cn1cnc(S(=O)(=O)N2CCC(CNC(=O)c3ccc(Cl)cc3Cl)(CC3CC3)CC2)n1")
-1
>>> category("Cc1nc(S(=O)(=O)N2CCC(CNC(=O)c3ccc(Cl)cc3Cl)(c3ncccc3F)CC2)cn1C")
1
>>> category("O=C(NCC1(c2ncccc2F)CCN(S(=O)(=O)c2ccc(Cl)s2)CC1)c1ccc(Cl)cc1Cl")
-1

Now consider the entry below.
stdin: API: above_or_equal(metric=inhibition, cutoff=30%) for item O=C(NCC1(c2ncccc2F)CCN(S(=O)(=O)Cc2ccccc2)CC1)c1ccc(Cl)cc1Cl
stdout: 1
